- measured-on: rat CB2 receptor (rCB2) (Rattus norvegicus, UniProt Q9QZN9)
- Sequence (Q9QZN9 whole entry): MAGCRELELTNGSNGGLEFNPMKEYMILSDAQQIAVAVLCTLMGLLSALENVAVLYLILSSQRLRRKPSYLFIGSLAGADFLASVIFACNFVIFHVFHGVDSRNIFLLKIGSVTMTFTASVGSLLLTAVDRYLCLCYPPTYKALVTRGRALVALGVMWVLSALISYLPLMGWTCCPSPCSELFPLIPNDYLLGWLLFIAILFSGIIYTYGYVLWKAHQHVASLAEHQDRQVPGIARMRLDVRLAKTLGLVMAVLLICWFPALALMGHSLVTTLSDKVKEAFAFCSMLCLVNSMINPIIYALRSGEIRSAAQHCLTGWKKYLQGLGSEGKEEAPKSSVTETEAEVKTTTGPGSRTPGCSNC
- method: cell-based
- Format: cell-based
- experimental-conditions: agonist or inverse agonist at rCB2

compound-smiles | +/− RCB2
CNC(=O)[C@@H](NC(=O)c1nc(-c2cccc(OC)c2F)n2c1CN(C)CCC2)C(C)(C)C | −
CNC(=O)[C@@H](NC(=O)c1nc(-c2cccnc2)n2c1CN(C)CCC2)C(C)(C)C | +
CNC(=O)[C@@H](NC(=O)c1nc(-c2ccc(F)c(C(N)=O)c2)n2c1CN(C)CCC2)C(C)(C)C | +
CNC(=O)[C@@H](NC(=O)c1nc(-c2ccccc2)n2c1CN(C(=O)CC(C)(C)C)CC2)C(C)(C)C | −
CN1CCCn2c(-c3ccccc3)nc(C(=O)N[C@H](C(=O)N(C)C)C(C)(C)C)c2C1 | +
CCc1nc(C(=O)N[C@H](C(=O)NC)C(C)(C)C)c2n1CCN(C)C2 | −
CCCNC(=S)N1CCn2c(-c3ccccc3)nc(C(=O)N[C@H](C(=O)NC)C(C)(C)C)c2C1 | −
